# EXPERIMENTAL DETAILS: protein stability index of a GFP-peptide fusion (GPS, HEK-293T) (PSI 1-6); higher = more stable;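 note: 24-mer peptide tiles fused after GFP, lentivirally expressed, FACS-sorted into six equal bins by GFP/DsRed ratio, decoded by Illumina sequencing, PSI is the read-weighted mean bin number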
# CONDITIONS: treatment: MLN4924 1 uM, 8 h; c terminus: a fixed tail appended
Reported protein stability index by item:

Solved entries (count: 3):
| SEQUENCE TEXT | protein stability index |
| --- | --- |
| EPPKCLDPCVISQEIMEKYNIKLK [CFHR2] | 2.87 |
| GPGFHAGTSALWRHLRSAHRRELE [ZBED3] | 3.13 |
| FLVAEWNEPSINFYKRRGASDLSS [SAT1] | 2.43 |

Per the record, EILTKESNVQEVRCPVTVCGDVHG [PPP2CA] has protein stability index of 3.79

Noted for SLNKQIAQLQDFVRAKGSQSGRHL [STX5] : its protein stability index reads 3.14

Entry VSNFLKERTGFSIRPVAGYLSPRD [TPH1] , protein stability index reported as 2.95

The measured protein stability index associated with DIKICALGEEWSLHKIYLCQSGYF [GMCL1] reads 2.62

----------
# EXPERIMENTAL DETAILS: protein stability index of a GFP-peptide fusion (GPS, HEK-293T) (PSI 1-6); higher = more stable
# CONDITIONS: treatment: DMSO; c terminus: a fixed tail appended
Listed here are sequences together with their documented protein stability index.

These solved cases illustrate the format of a correct answer.
| SEQUENCE TEXT | protein stability index |
| --- | --- |
| MLIFWTITLFLLGAAKGKEVCYED [PNLIPRP1] | 3.72 |
| TIKPRRVEPVCSGLQAQILHCYRD [CHCHD6] | 2.98 |
| APGFGEDVPNRLVDNIDMIDGDGD [BEX5] | 5.5 |

The measured protein stability index associated with LRTLSRAKFWPRRRFNFFVLENNL [DNAAF3] reads 2.33

----------
# EXPERIMENTAL DETAILS: protein stability index of a GFP-peptide fusion (GPS, HEK-293T) (PSI 1-6); higher = more stable
# CONDITIONS: treatment: DMSO; c terminus: a fixed tail appended
Measured protein stability index values are reported for all entries that follow.

Example sequences with recorded protein stability index:
| SEQUENCE TEXT | protein stability index |
| --- | --- |
| QGLKLYAVEISDHPGEHEVGEPEF [CPXM2] | 4.5 |
| SPSESSETVLALVNCISPLKYFSD [DENND6A] | 2.78 |
| QGPISTKELADFIRERATIEETYS [FCHO1] | 3.13 |
| PNGLEAAYEFADRDEVRFFKGNKY [MMP1] | 3.74 |
| LDQLLDMPAAGLAVQLRHAWNPED [SPSB4] | 3.44 |
| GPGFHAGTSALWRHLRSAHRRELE [ZBED3] | 2.73 |
| TTLLRRYNIPHGPVVGSTRRLYEK [EMD] | 3.14 |
| ADPLQLNKALSIILHLICLLEKVP [FEM1C] | 3 |
| FGGVLEYFMIQALNQKTSEKMKKR [RHOBTB3] | 2.14 |
| IPSTPEEVSADDETPNPPQSAQIA [MAGEA10] | 5.42 |

For reference, reported protein stability index for WETIRSFKDEWTQLDMFYRNWALK [AASDHPPT] stands at 2.14

protein stability index in this record for MEPAVSEPMRDQVARTHLTEDTPK [NSDHL] : 5.57

Kindly note the recorded protein stability index for QCPEPPIVVHCSAGIGRTGTFCSL [PTPN9] , which is 2.17

Sure, the documented protein stability index for GIQPGQEPPVTMIFMGYQNVEDEA [PALM] is 3.94

Looking up LQLLQSRTSRKFLACRLTPDMETK [INTS3] , I found its protein stability index recorded as 2.69

Sample GSQRARVVNTDHGSPEQLQIPVTD [SDE2] ; protein stability index observed: 5.06

According to the records, this sequence DREVDAATSATSHTRSLNSIIHQM [FBF1] displays protein stability index of 4.09

Lookup result for LQFTILLSLIGVRVDVDTYLTSQL [NFE2L1] ; measured protein stability index: 2.97

----------
# EXPERIMENTAL DETAILS: protein stability index of a GFP-peptide fusion (GPS, HEK-293T) (PSI 1-6); higher = more stable
# CONDITIONS: treatment: DMSO; c terminus: a fixed tail appended
I'd appreciate it if you could label each record using protein stability index and these ranges: band 1 = under 3, band 2 = from 3 up to 4, band 3 = 4 and over

Past entries and their recorded results:
| SEQUENCE TEXT | CLASS ASSIGNMENT |
| --- | --- |
| ENNYYWSASECMQDFNTMFTNCYI [BRD3] | band 1 |
| SHCSQLTTLSFYGNSISISALQSL [PRAME] | band 1 |
| VYTNLSSYSPASASSGGAGAAVGT [JUNB] | band 2 |
| EDERVVGKEQGQNLARQWNNCAFL [RAP1B] | band 3 |
| SMNRVKNISDADVHNAMDNYECNL [FEM1B] | band 3 |
| DGEVPQHAGKKGKLSEHLRYCDSI [BRD3] | band 3 |
| AAGKAEVVLGNIIKKKGWRRSSLV [KCNAB2] | band 1 |
| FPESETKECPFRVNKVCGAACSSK [SERPINB5] | band 1 |
| KMNFSTLRNIQGLFAPLKLQMEFK [POMP] | band 1 |
| LLEQSLEEFAQAESKDQGKTLALA [ALDH8A1] | band 3 |

Q) # bin lookup: classify LTYENVERWLKELRDHADSNIVIM [RAB11A] by its protein stability index
A) band 1

Q) Into which category would you place NRFRVEISFHFEVTNHNIRLFEDV [TRIM43] ?
A) band 1

Q) Sort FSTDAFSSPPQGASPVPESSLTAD [SNAP91] into one of the categories.
A) band 2

Q) Quick check: band for EFNHTGELLATGDKGGRVVIFQRE [PPP2R2B]
A) band 2

Q) Which class is correct for the following sequence? WKNTKKMGVGKASASDGSSFVVAR [GLIPR2]
A) band 2

Q) Sort into band: SASSTGDLPKAKTRAADLLVNPLD [SRPK2]
A) band 3

Q) Which category fits this record: EILYPALPTDGSTGVELAPRSAEP [PCDHGA10]
A) band 3

----------
# protein stability index per record follows
# EXPERIMENTAL DETAILS: protein stability index of a GFP-peptide fusion (GPS, HEK-293T) (PSI 1-6); higher = more stable
# CONDITIONS: treatment: DMSO; c terminus: a fixed tail appended

The measured protein stability index associated with EPFSARVLVLCVFNSILPGVLILF [SOAT1] reads 3.05

Reported protein stability index ( SLVLILSLSYTVLIVGRIAIGVSI [SLC2A12] ) = 2.94

What the record says about ATDMISIFEPPVRNSGIIGGKYLG [EFHC1] : protein stability index is 2.92

----------
# EXPERIMENTAL DETAILS: protein stability index of a GFP-peptide fusion (GPS, HEK-293T) (PSI 1-6); higher = more stable
# CONDITIONS: treatment: MLN4924 1 uM, 8 h; c terminus: a fixed tail appended
Below, each of the sequences is paired with its reported protein stability index value.
I only need the number, thanks.

Here are 6 sequences together with their reported answers.
| SEQUENCE TEXT | protein stability index |
| --- | --- |
| HTGDKPYKCAECGKSFCHSTHLTV [ZNF8] | 3.85 |
| PPVSQSRSLFSSVPSKPPMSLEPQ [ANKRD40] | 4.68 |
| NERDSSEPGNFIPLFTPQSPVTAT [CDC25A] | 4.65 |
| TIKKRLENNYYWSASECMQDFNTM [BRD3] | 2.15 |
| RAGGWVSGEEFYMLTRRVLQLETV [PKD2L1] | 2.5 |
| EAMLYHNQTAELRELLEFTHMYLQ [P3H4] | 2.69 |

So, RRKDVCQAIDHGCEHICVNSDDSY [MATN2] ? Its protein stability index was 4.53

Per the records, this sequence ( TARFQRNHRLISEILSESVVPDVR [SMARCE1] ) has protein stability index equal to 3.23

For MESKEKRAVNSLSMENANQENEEK [BEX1] the sequence record lists protein stability index as 5.52

Entry EGGWWKAISLSTGRESYIPGICVA [SLA] — recorded protein stability index = 2.05

QLHIFNTLRSHLIDKGMLTSTTED [CDS2] has a reported protein stability index of 3.09

----------
# EXPERIMENTAL DETAILS: protein stability index of a GFP-peptide fusion (GPS, HEK-293T) (PSI 1-6); higher = more stable
# CONDITIONS: treatment: MLN4924 1 uM, 8 h; c terminus: a fixed tail appended
Below is a list of entries, each paired with its recorded protein stability index value.
I'd appreciate a reply containing only the number, no unit.

Below are worked cases with known answers.
| SEQUENCE TEXT | NUMERIC READOUT |
| --- | --- |
| SRFVETLVVADDKMAAFHGAGLKR [ADAMTS4] | 4.26 |
| NRFRVEISFHFEVTNHNIRLFEDV [TRIM43] | 2.84 |
| CSYVVTRTISCHVQNGTYLQRVLQ [EMID1] | 2.6 |
| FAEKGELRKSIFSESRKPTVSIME [TRIM29] | 3.09 |

So, LSTNNNTLRDHFKGISSHSRSSLM [SLC2A12] ? Its protein stability index was 3.3

LERVRVSCTIIFLASIFQLAMWTT [TMEM175] has a reported protein stability index of 3.29

The sequence listed as KVLRKAGLSAGYVDAGAEPGRSRM [LPCAT4] shows protein stability index equal to 3.73

The sequence identified as IEQQQIRNALENIRKEMKLLEQAG [CRYL1] registered its protein stability index at 4.27

Looking up MYHYLQFAYYKLNDVRQAARSAAS [P3H4] , I found its protein stability index recorded as 2.33
